target: O-acyltransferase (Oryctolagus cuniculus, UniProt G1SFD9)
measurement_name: IC50 (nM)
Record the value in nM, omitting the unit from your answer.

I have this compound here, `Cc1cc(C)c(NC(=O)C(C)(C)CCCCCCc2ccccc2)c2c1CC(C)(C)O2` , and I need its recorded IC50.
81

So what does the record say about IC50 for `Cc1ccc(OCCCCCCC(C)(C)C(=O)Nc2c(C)cc(C)c3c2OC(C)(C)C3)cc1` ?
50

Query (compound): `Cc1cc(C)c(NC(=O)C(C)(C)CCCCCOc2ccc(Cl)cc2)c2c1CC(C)(C)O2` ; field requested: IC50
150

Give its IC50 value. Item: `Cc1cc(C)c(NC(=O)C(C)(C)CCCCc2ccccc2)c2c1CC(C)(C)O2`
210

Using the record for `CCCCCCCCCCC1(C(=O)Nc2c(C)cc(C)c3c2OC(C)(C)C3)CCCC1` , report its IC50.
170

Fill in: IC50 of `CCCCCCCCCCC1(C(=O)Nc2cccc3c2OC(C)(C)C3)CCCC1` is ___
500

What does the record list as IC50 for `CCCCCCCCCCCCC(C)(C)C(=O)Nc1c(C)cc(C)c2c1OC(C)(C)C2` ?
33

###

test system: Rattus norvegicus; assay: Total cholesterol lowering activity tested by administered orally to rats at dose 10(mg/kg) once a day for 3 days; type: functional
measurement_name: Change (%)
Write the answer as a number in %, unit excluded.

Endpoint output: Change of `Cc1cc(C)c(NC(=O)C(C)(C)CCCCCc2ccccc2)c2c1CC(C)(C)O2` . Value?
-66

Can you share its Change? I mean this molecule: `Cc1cc(C)c(NC(=O)C(C)(C)CCCCOCc2ccccc2)c2c1CC(C)(C)O2`
-50

Please report the recorded Change for `Cc1cc(C)c(NC(=O)C(C)(C)CCCCOc2ccc(Cl)cc2)c2c1CC(C)(C)O2` .
-61

Please report the recorded Change for `CCCCCCCCCCC1(C(=O)Nc2c(C)ccc3c2OC(C)(C)C3)CCCC1` .
-52

Look at this molecule and give its reported Change. `Cc1cc(C)c(NC(=O)C(C)(C)CCCCCCOCC(C)C)c2c1CC(C)(C)O2`
-62

###

biological target: Sterol O-acyltransferase 1 (Oryctolagus cuniculus); experiment: Inhibitory activity against Acyl coenzyme A:cholesterol acyltransferase 1 obtained from rabbit liver microsomes
measurement_name: IC50 (nM)
Numeric answer only, unit nM assumed.

Need IC50, item `CCCCCCCCCCC(C)(C)C(=O)Nc1c(OC)ccc2c1OCCC2=O`
16

###

Field: IC50. Provide a value for each of the compounds that follow.

Field: IC50 (O-acyltransferase (Oryctolagus cuniculus)). Entry: `CCCOCCCCCCOc1ccc(C(=O)Nc2c(C)cc(C)c3c2OC(C)(C)C3)cc1`
> 200 nM

O-acyltransferase (Oryctolagus cuniculus) / IC50 / `CCCCCCCCOc1ccc(C(=O)Nc2c(C)cc(C)c3c2OC(C)(C)C3)cc1` : value?
> 200 nM

Write down the reported IC50 of `Cc1cc(C)c(NC(=O)C(C)(C)CCCCCCN2CCCCC2)c2c1CC(C)(C)O2` , test system: O-acyltransferase (Oryctolagus cuniculus).
> 500 nM
